FYI, the data here is from patent US20040106626A1.

target: Human thrombin (Homo sapiens, UniProt P00734); construct: converts prothrombin (II) to thrombin (IIa); purchased Calbiochem, La Jolla, Calif; assay: Thrombin assay (chromogenic substrate); assay type: biochemical; settings: reported only as less than or greater than 30 uM; read-out: Thrombin (II) IC50
pIC50: −log10 of the molar value.

smi: CC[C@H](C)NC(=O)c1cc(N)cc(-c2cnc(NC(C)C)c(=O)n2CC(=O)NCc2c(O)cc(C(=N)N)cc2O)c1
pIC50: < 4.52
--
smi: CC(C)CCNc1cc(N)cc(-c2cnc(NC(C)C)c(=O)n2CC(=O)NCc2ccc(C(=N)N)cc2)c1
pIC50: > 4.52
--
smi: CC(C)Nc1ncc(-c2cc(N)cc(C(=O)N(C)Cc3ccccc3)c2)n(CC(=O)NCc2ccc(C(=N)N)cc2)c1=O.O=C(O)C(F)(F)F.O=C(O)C(F)(F)F
pIC50: < 4.52

====

The compounds listed here are annotated with their IC50.
target: recombinant soluble tissue factor and recombinant human factor VIIa (TF-VIIa) (Homo sapiens, UniProt P08709); construct: conversion of coagulation factor VII to VIIa by factor Xa; test: TF-VIIa assay (chromogenic substrate hydrolysis); conditions: reported only as less than or greater than 0.1 uM
Sequence (P08709 213-466 limits assumed): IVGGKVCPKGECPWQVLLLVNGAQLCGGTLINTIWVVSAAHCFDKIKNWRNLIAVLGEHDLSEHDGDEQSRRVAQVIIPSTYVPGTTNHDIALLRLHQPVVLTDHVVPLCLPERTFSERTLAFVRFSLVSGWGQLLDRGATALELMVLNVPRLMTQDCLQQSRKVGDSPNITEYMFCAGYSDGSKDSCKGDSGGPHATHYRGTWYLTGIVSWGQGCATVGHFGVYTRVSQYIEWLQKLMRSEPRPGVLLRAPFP
Sequence (P08709 61-212 limits assumed): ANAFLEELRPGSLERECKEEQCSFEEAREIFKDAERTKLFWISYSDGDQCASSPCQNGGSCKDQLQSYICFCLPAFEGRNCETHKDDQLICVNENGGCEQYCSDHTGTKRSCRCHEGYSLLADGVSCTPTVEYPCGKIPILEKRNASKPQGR
Sequence (P13726 33-251 partner limits assumed): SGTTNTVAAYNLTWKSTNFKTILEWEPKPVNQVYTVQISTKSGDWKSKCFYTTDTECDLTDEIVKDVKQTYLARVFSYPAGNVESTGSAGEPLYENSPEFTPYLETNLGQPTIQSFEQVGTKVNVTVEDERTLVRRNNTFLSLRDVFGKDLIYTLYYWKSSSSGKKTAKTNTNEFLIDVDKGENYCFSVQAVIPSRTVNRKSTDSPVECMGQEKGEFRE

smi: CC[C@@H](C)NC(=O)c1cc(N)cc(-c2cnc(NC(C)C)c(=O)n2CC(=O)NCc2c(O)cc(C(=N)N)cc2OCC(=O)O)c1
IC50: > 100 nM
//
smi: CC(C)Nc1ncc(-c2cc(N)cc(OCC3CCCC3)c2)n(CC(=O)NCc2ccc(C(=N)N)cc2)c1=O.O=C(O)C(F)(F)F.O=C(O)C(F)(F)F
IC50: < 100 nM
//
smi: CC(C)Nc1ncc(-c2cc(N)cc(C(=O)O)c2)n(CC(=O)NCc2ccc(C(=N)N)cc2)c1=O.O=C(O)C(F)(F)F
IC50: < 100 nM

====

The molecules listed here are annotated with their IC50.
biological target: Human thrombin (Homo sapiens); construct: converts prothrombin (II) to thrombin (IIa); purchased Calbiochem, La Jolla, Calif; assay: Thrombin assay (chromogenic substrate); assay type: biochemical; conditions: reported only as less than or greater than 30 uM; read-out: Thrombin (II) IC50

molecule: CC[C@H](C)NC(=O)c1cc(N)cc(-c2cnc(NC(C)C)c(=O)n2CC(=O)NCc2c(O)cc(C(=N)N)cc2OC)c1 [Example 195]
IC50: > 30 µM
//
molecule: CCC(CC)C(=O)Nc1cc(N)cc(-c2cnc(NC(C)C)c(=O)n2CC(=O)NCc2ccc(C(=N)N)cc2)c1.O=C(O)C(F)(F)F.O=C(O)C(F)(F)F [Example 134]
IC50: < 30 µM
//
molecule: CC(C)C[S+]([O-])c1cc(N)cc(-c2cnc(NC(C)C)c(=O)n2CC(=O)NCc2ccc(C(=N)N)cc2)c1 (stereo not shown) [Example 73]
IC50: > 30 µM
//
molecule: CC(C)CSc1cc(N)cc(-c2cnc(NC(C)C)c(=O)n2CC(=O)NCc2ccc(C(=N)N)cc2)c1 [Example 70]
IC50: > 30 µM
//
molecule: CC(C)Nc1ncc(-c2cc(N)cc(O)c2)n(CC(=O)NCc2ccc(C(=N)N)cc2)c1=O [Example 54]
IC50: > 30 µM
//
molecule: CCC(C(=O)Nc1cc(N)cc(-c2cnc(NC(C)C)c(=O)n2CC(=O)NCc2ccc(C(=N)N)cc2)c1)c1ccccc1.O=C(O)C(F)(F)F.O=C(O)C(F)(F)F (stereo not shown) [Example 143]
IC50: < 30 µM
//
molecule: CC[C@H](C)NC(=O)c1cc(N)cc(-c2cnc(NC(C)C)c(=O)n2CC(=O)NCc2ccc(C(=N)N)cc2)c1 [Example 71]
IC50: < 30 µM
//
molecule: CC(C)Nc1ncc(-c2cc(N)cc(OCCC(C)(C)C)c2)n(CC(=O)NCc2ccc(C(=N)N)cc2)c1=O.O=C(O)C(F)(F)F.O=C(O)C(F)(F)F [Example 215]
IC50: > 30 µM
//
molecule: CCC(CC)CS(=O)(=O)c1cc(N)cc(-c2cnc(NC(C)C)c(=O)n2CC(=O)NCc2ccc(C(=N)N)cc2)c1.O=C(O)C(F)(F)F.O=C(O)C(F)(F)F [Example 229]
IC50: > 30 µM
//
molecule: CC(C)Nc1ncc(-c2cc(N)cc(-c3ccccc3)c2)n(CC(=O)NCc2ccc(C(=N)N)cc2)c1=O [Example 69]
IC50: > 30 µM
//
molecule: COC(=O)Cc1cc(N)c(OC)c(-c2cnc(NC(C)C)c(=O)n2CC(=O)NCc2ccc(C(=N)N)cc2)c1 [Example 22]
IC50: > 30 µM
//
molecule: CNc1ncc(-c2cc(N)cc(N)c2)n(CC(=O)NCc2ccc(C(=N)N)cc2)c1=O [Example 35]
IC50: > 30 µM
//
molecule: CC(C)Nc1ncc(-c2cc(N)cc(C(=O)NCc3cccc(F)c3)c2)n(CC(=O)NCc2ccc(C(=N)N)cc2)c1=O [Example 8]
IC50: > 30 µM

====

target: recombinant soluble tissue factor and recombinant human factor VIIa (TF-VIIa) (Homo sapiens, UniProt P08709); construct: conversion of coagulation factor VII to VIIa by factor Xa; experiment: TF-VIIa assay (chromogenic substrate hydrolysis); conditions: reported only as less than or greater than 0.1 uM

compound: CCCCN(CCCC)c1cc(N)cc(-c2cnc(NC(C)C)c(=O)n2CC(=O)NCc2ccc(C(=N)N)cc2)c1
IC50: > 100 nM
--
compound: CC(C)Nc1ncc(-c2cc(N)cc(S(=O)(=O)CC3CCCCC3)c2)n(CC(=O)NCc2ccc(C(=N)N)cc2)c1=O.O=C(O)C(F)(F)F.O=C(O)C(F)(F)F
IC50: < 100 nM
--
compound: CC(C)Nc1ncc(-c2cc(N)cc(OC(C)C(=O)O)c2)n(CC(=O)NCc2ccc(C(=N)N)cc2)c1=O (stereo not shown)
IC50: < 100 nM
--
compound: CC(C)Nc1ncc(-c2cc(N)cc(C(=O)NCc3cccc(F)c3)c2)n(CC(=O)NCc2ccc(C(=N)N)cc2)c1=O
IC50: < 100 nM

====

target: recombinant soluble tissue factor and recombinant human factor VIIa (TF-VIIa) (Homo sapiens, UniProt P08709); construct: conversion of coagulation factor VII to VIIa by factor Xa; assay: TF-VIIa assay (chromogenic substrate hydrolysis); settings: reported only as less than or greater than 0.1 uM
The molecules listed here are annotated with their IC50.
experimental-readout: IC50

molecule: COc1ccc(CNC(=O)c2cc(N)cc(-c3cnc(NC(C)C)c(=O)n3CC(=O)NCc3ccc(C(=N)N)cc3)c2)cc1.O=C(O)C(F)(F)F.O=C(O)C(F)(F)F [Example 174]
experimental-readout: IC50
observed: < 100 nM

molecule: CC(=O)Oc1cc(N)cc(-c2cnc(NC(C)C)c(=O)n2CC(=O)NCc2ccc(C(=N)N)cc2)c1.O=C(O)C(F)(F)F [Example 175]
experimental-readout: IC50
observed: < 100 nM

molecule: COC(=O)c1cc(N)cc(-c2c(Br)nc(NC(C)C)c(=O)n2CC(=O)NCc2ccc(C(=N)N)cc2)c1 [Example 4]
experimental-readout: IC50
observed: < 100 nM

molecule: N=C(N)c1ccc(CNC(=O)Cn2c(-c3cc(N)cc(C(=O)O)c3)cnc(NC3CC3)c2=O)cc1.O=C(O)C(F)(F)F [Example 204]
experimental-readout: IC50
observed: < 100 nM

molecule: CCCCC(CC)C(=O)Nc1cc(N)cc(-c2cnc(NC(C)C)c(=O)n2CC(=O)NCc2ccc(C(=N)N)cc2)c1.O=C(O)C(F)(F)F.O=C(O)C(F)(F)F (stereo not shown) [Example 137]
experimental-readout: IC50
observed: < 100 nM

molecule: CC(C)Nc1ncc(-c2cc(N)cc(C(F)(F)F)c2)n(CC(=O)NCc2cc(O)c(C(=N)N)c(F)c2)c1=O.O=C(O)C(F)(F)F [Example 116]
experimental-readout: IC50
observed: > 100 nM

molecule: CC(C)Nc1ncc(-c2cc(N)cc(NS(=O)(=O)c3cccs3)c2)n(CC(=O)NCc2ccc(C(=N)N)cc2)c1=O [Example 91]
experimental-readout: IC50
observed: < 100 nM

molecule: CC(C)Nc1ncc(-c2cc(N)cc(NC(=O)C(C)(C)C)c2)n(CC(=O)NCc2ccc(C(=N)N)cc2)c1=O [Example 132]
experimental-readout: IC50
observed: < 100 nM

molecule: CC(C)CNC(=O)c1cc(N)cc(-c2cnc(NC(C)C)c(=O)n2CC(=O)NCc2ccc(C(=N)N)cc2)c1 [Example 5]
experimental-readout: IC50
observed: < 100 nM

molecule: CC[C@H](C)NC(=O)c1cc(N)cc(-c2cnc(NC(C)C)c(=O)n2CC(=O)NCc2c(O)cc(C(=N)N)cc2OCc2ccccc2)c1 [Example 242]
experimental-readout: IC50
observed: < 100 nM

molecule: CC(C)Nc1ncc(-c2cc(N)cc(O)c2)n(CC(=O)NCc2cc(O)c(C(=N)N)c(F)c2)c1=O [Example 180]
experimental-readout: IC50
observed: > 100 nM

molecule: COCCNC(=O)c1cc(N)cc(-c2cnc(NC(C)C)c(=O)n2CC(=O)NCc2ccc(C(=N)N)cc2)c1 [Example 39]
experimental-readout: IC50
observed: < 100 nM

molecule: CC(C)Nc1ncc(-c2cc(N)cc(C(=O)NCCCc3ccccc3)c2)n(CC(=O)NCc2ccc(C(=N)N)cc2)c1=O [Example 62]
experimental-readout: IC50
observed: < 100 nM
